# Assay method text: Dynamic interfacial tension analysis (dIFT), ascending canola oil drop in aqueous surfactant solution
# Assay type: physicochemical
# Reported conditions: solution hardness 20 gpg (3:1 Calcium:Magnesium), 200 ppm surfactant, pH 8.3-8.5, canola oil
Outcome measure: IFT @ 1 μL/min Oil Flowrate, 21.1° C. (mN/m)

CCCCCCCCCCCCc1ccc(S(=O)(=O)[O-])o1.[Na+] [C12 1-furan AFS, sodium 5-dodecanfuran-2-sulfonate]
0.25

[1] CCCCCCCCCCC(C)c1ccc(S(=O)(=O)[O-])o1.[Na+] (stereo not shown) [C12 2-furan AFS, sodium 5-(dodecan-2-yl)furan-2-sulfonate]
[2] CCCCCCCCCCCCCc1ccc(S(=O)(=O)[O-])o1.[Na+] [C13 1-furan AFS, sodium 5-tridecanfuran-2-sulfonate]
[3] CCCCCCCCCC(C)c1ccc(S(=O)(=O)[O-])o1.[Na+] (stereo not shown) [C11 2-furan AFS, sodium 5-(undecan-2-yl)furan-2-sulfonate]
Input: Place the items in sequence of falling IFT @ 1 μL/min Oil Flowrate, 21.1° C.. Answer format: the labels, ordered as requested.
Output: 3, 1, 2

* * *

# Assay method text: Dynamic interfacial tension analysis (dIFT), ascending canola oil drop in aqueous surfactant solution
# Type: physicochemical
# Reported conditions: solution hardness 6 gpg (3:1 Calcium:Magnesium), 200 ppm surfactant, pH 8.3-8.5, canola oil
Outcome measure: IFT @ 1 μL/min Oil Flowrate, 21.1° C. (mN/m)

CCCCCCCCCCCCc1ccc(S(=O)(=O)[O-])o1.[Na+] [C12 1-furan AFS, sodium 5-dodecanfuran-2-sulfonate]
0.31

[1] CCCCCCCCCC(C)c1ccc(S(=O)(=O)[O-])o1.[Na+] (stereo not shown) [C11 2-furan AFS, sodium 5-(undecan-2-yl)furan-2-sulfonate]
[2] CCCCCCCCCCCCCc1ccc(S(=O)(=O)[O-])o1.[Na+] [C13 1-furan AFS, sodium 5-tridecanfuran-2-sulfonate]
[3] CCCCCCCCCCC(C)c1ccc(S(=O)(=O)[O-])o1.[Na+] (stereo not shown) [C12 2-furan AFS, sodium 5-(dodecan-2-yl)furan-2-sulfonate]
Input: With regard to IFT @ 1 μL/min Oil Flowrate, 21.1° C., arrange the entries in ascending order, please. Answer format: the labels, ordered as requested.
Output: 2, 3, 1
